Quick reference for IC50 among some compounds
target: SHV-1 (Klebsiella pneumoniae, UniProt P0AD64); assay: β-lactamase inhibitory activity, IC50 (nitrocefin hydrolysis)
Sequence (P0AD64 22-286): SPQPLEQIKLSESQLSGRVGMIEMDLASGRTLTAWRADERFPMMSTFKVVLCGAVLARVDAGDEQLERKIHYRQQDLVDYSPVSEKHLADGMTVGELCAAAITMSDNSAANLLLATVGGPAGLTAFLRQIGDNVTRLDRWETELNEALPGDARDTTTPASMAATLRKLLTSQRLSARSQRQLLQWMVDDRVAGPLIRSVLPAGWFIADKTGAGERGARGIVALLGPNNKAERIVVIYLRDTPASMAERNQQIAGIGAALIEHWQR
Property Label: IC50

>>> df
                                   compound                          target_or_system    result
0  O=C1N2CC(n3cccn3)=CC(C2)N1OC(F)(F)C(=O)[O-].[Li+] (stereo not drawn) [AF3]  SHV-1 (Klebsiella pneumoniae, UniProt P0AD64)  0.006 µM
1  O=C1N2CC=C(c3cnoc3)C(C2)N1OC(F)(F)C(=O)[O-].[Li+] (stereo not drawn) [AF1]  SHV-1 (Klebsiella pneumoniae, UniProt P0AD64)   0.02 µM
2  O=C1N2CC(c3ncco3)=CC(C2)N1OC(F)(F)C(=O)[O-].[Li+] (stereo not drawn) [AF2]  SHV-1 (Klebsiella pneumoniae, UniProt P0AD64)  0.012 µM

----------
system: Serratia marcescens (SMA) isolates; experiment: MIC of compounds alone and combined with antibacterials, broth microdilution (CLSI); type: cell-based; settings: strain SMA UFR135; genotype TEM-1, KPC-2
Property Label: MIC

In [3]: df
Out[3]:
                                     smiles      result
0  C=CC1=C(C(=O)O)N2C(=O)[C@@H](NC(=O)/C(=N\OCC(=O)O)c3csc(N)n3)[C@H]2SC1    64 µg/mL
1  CC(C)(O/N=C(\C(=O)N[C@@H]1C(=O)N2C(C(=O)[O-])=C(C[n+]3ccccc3)CS[C@H]12)c1csc(N)n1)C(=O)O    32 µg/mL
2  CO/N=C(\C(=O)N[C@@H]1C(=O)N2C(C(=O)O)=C(COC(N)=O)CS[C@H]12)c1ccco1  >256 µg/mL
3  CC1(C)S[C@@H]2[C@H](NC(=O)[C@H](N)c3ccc(O)cc3)C(=O)N2[C@H]1C(=O)O  >128 µg/mL

----------
target: OXA-1 (Escherichia coli, UniProt P13661); assay: β-lactamase inhibitory activity, IC50 (nitrocefin hydrolysis)
Sequence (P13661 26-276): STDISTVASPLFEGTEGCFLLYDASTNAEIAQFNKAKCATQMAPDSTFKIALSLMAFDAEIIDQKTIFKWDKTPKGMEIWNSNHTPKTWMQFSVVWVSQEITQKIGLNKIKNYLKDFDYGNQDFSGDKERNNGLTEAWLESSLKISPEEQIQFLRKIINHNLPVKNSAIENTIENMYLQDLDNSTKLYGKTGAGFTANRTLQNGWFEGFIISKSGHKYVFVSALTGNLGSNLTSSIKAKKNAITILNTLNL
Property Label: IC50 (nM)

>>> print(df.to_string())
                                   compound  unit_string  number
0  O=C1N2CC(n3cccn3)=CC(C2)N1OC(F)(F)C(=O)[O-].[Li+] (stereo not drawn)           nM    1100
1  O=C1N2CC(c3ncco3)=CC(C2)N1OC(F)(F)C(=O)[O-].[Li+] (stereo not drawn)           nM    2100
2  O=C1N2CC=C(c3cnoc3)C(C2)N1OC(F)(F)C(=O)[O-].[Li+] (stereo not drawn)           nM    1600

----------
tested on: Citrobacter koseri (CKR) isolates; assay: MIC of compounds alone and combined with antibacterials, broth microdilution (CLSI); type: cell-based; settings: strain CKO ROU; genotype TEM-1, SHV-12, CTX-M-15, OXA-1, OXA-48
Property Label: MIC (µg/mL)

                                     smiles  property_label  result_modifier  number
0  CO/N=C(\C(=O)N[C@@H]1C(=O)N2C(C(=O)O)=C(COC(N)=O)CS[C@H]12)c1ccco1             MIC                =      64
1  CC(C)(O/N=C(\C(=O)N[C@@H]1C(=O)N2C(C(=O)[O-])=C(C[n+]3ccccc3)CS[C@H]12)c1csc(N)n1)C(=O)O             MIC                =       1
2  CC1(C)S[C@@H]2[C@H](NC(=O)[C@H](N)c3ccc(O)cc3)C(=O)N2[C@H]1C(=O)O             MIC                >     256
3  C=CC1=C(C(=O)O)N2C(=O)[C@@H](NC(=O)/C(=N\OCC(=O)O)c3csc(N)n3)[C@H]2SC1             MIC                =       1
